Provenance of the data: PubChem BioAssay AID1159580

PROTOCOL TEXT: chemical genetic growth profiling, strain panel (AID 1159580);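 also: tested at 20 µM; growth read once vehicle control cultures reached saturation at 30 °C; 1 = growth at the plate median or of vehicle wells; lower values mean less growth of the strain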
ASSAY SETUP: S. cerevisiae deletion strains, growth OD, locus YLR262C, strain YPT6 (second series)
Out of some 5,500 compounds screened, about 2,000 (36%) were called active. Another 18% or so got no clear call; they are omitted. Rule as the data show it: active = normalized growth mostly below about 0.91 (no sharp cut-off); inconclusive = no clear call, values can overlap the other calls; inactive = mostly above about 0.92. The list shows a part of the results.
Lab note: assign the record to one of active, inactive

Some entries whose results are on file:
> print(dat)
                                   compound  answer.label
1  Cc1c(S(=O)(=O)O)oc2c1C(=O)C(=O)c1c-2ccc2c1CCCC2(C)C        active
2  COc1ccc([C@H]2Oc3cc(OC)cc(OC)c3C[C@H]2O)cc1      inactive
3             O=C(Cn1ccnc1[N+](=O)[O-])NCCO      inactive
4  COc1cc2c(cc1OC)C1Cc3ccc(OC)c(OC)c3CN1CC2 (stereo unspecified)      inactive
5  O=C1[C@H](CCC(O)c2ccc(F)cc2)[C@@H](c2ccc(O)cc2)N1c1ccc(F)cc1 (stereo partly specified)      inactive

// switching to the query compound
Hey, what did the test say about NC(CO)C(=O)NNCc1ccc(O)c(O)c1O (stereo unspecified) ? inactive

====

PROTOCOL TEXT: chemical genetic growth profiling, strain panel (AID 1159580)
ASSAY SETUP: S. cerevisiae deletion strains, growth OD, locus YGL086W, strain mad1, stronger effect = lower value
The whole screen tested about 5,500 compounds, of which about 2,000 (36%) were called active. Roughly 18% stayed inconclusive and do not appear here. This is one part of the list.
Recorded normalized growth by entry
Number only, please.

> print(dat)
                                   compound  measured
1  COc1ccc2c(c1O)OCC1c3cc4c(cc3OC21)OCO4 (stereo not given)     0.996
2  COc1cc(-c2coc3cc(OCc4ccccc4)c(OC)c(O)c3c2=O)cc(O)c1OC     0.841
3  C=C1C(=O)O[C@@H]2C3O[C@]3(C)CC/C=C(\C)CC[C@@H]12 (stereo not given in full)     0.792
4        OC(Cn1cncn1)(Cn1cncn1)c1ccc(F)cc1F     0.997

I'd like to know its normalized growth. The compound in question is CC(=O)OCC[C@H](C)CCC=C(C)C 1.01

What value of measured normalized growth is listed for CC1(C)C2CC(=O)[C@]3(C)C(CC[C@@]4(C)[C@H](c5ccoc5)OC(=O)[C@H]5O[C@]543)[C@@]2(C)C=C[C@@H]1O (stereo not given in full) ? 0.989

Field request: normalized growth | item: C#CCCCCCCCCCCCC(=O)CC(O)COC(C)=O (stereo not given) 0.867

Which normalized growth reading was recorded for the compound Cc1cc(NC(=O)C2=C(O)c3ccccc3S(=O)(=O)N2C)no1 ? 0.999

normalized growth lookup needed for CC(=O)OC1CCC2(C)C(=CC=C3C2CCC2(C)C3CCC2C(C)/C=C/C(C)C(C)C)C1(C)C (stereo not given) , thanks. 0.994

Quick one: normalized growth for Oc1ccc(Cl)cc1 ? 1

What does the record list as normalized growth for CCCCN1CCCCC1C(=O)Nc1c(C)cccc1C (stereo not given) ? 1.01

Which value of normalized growth has been reported for CC(C)(C)CC(C)(C)c1ccc(O)c(Cc2ccc(Cl)cc2Cl)c1 in the records? 1.01

====

PROTOCOL TEXT: chemical genetic growth profiling, strain panel (AID 1159580)
ASSAY SETUP: S. cerevisiae deletion strains, growth OD, locus YKL068W
About 2,000 (36%) of roughly 5,500 compounds were called active. Inconclusive results (about 18%) are left out. Rule as the data show it: active = normalized growth mostly below about 0.91 (no sharp cut-off); inconclusive = no clear call, values can overlap the other calls; inactive = mostly above about 0.92. This is one part of the list.
Outcome field: choose from active, inactive

> print(dat)
                                   compound  answer.label
1              CCCCNc1ccc(C(=O)OCCN(C)C)cc1      inactive
2  C=C1C(=O)OC2CC1C(OC(C)=O)C/C(C)=C/CC/C(C)=C/CC[C@]2(C)O (some centres not stated)      inactive
3  CC1=CC2C(CC1=O)C(C)=CCC2C(C)C (configuration not stated)      inactive

Each compound tested received a call. Report the one for CC1(C)C2CC(=O)[C@]3(C)C(CC[C@@]4(C)[C@H](c5ccoc5)OC(=O)[C@H]5O[C@]543)[C@@]2(C)C=C[C@@H]1O (some centres not stated) . inactive

Identify the outcome logged in this assay for the compound shown: CCCCOC(=O)c1ccc(N)cc1 inactive

Write down the call the test reported for this compound. Item: C=C1C(C)C2C(Cc3ccccc3)NC(=O)C23OC(=O)/C=C/C(=O)CCCC(C)C/C=C/C3C1O (configuration not stated) inactive

Hello, I am checking results. What call was entered for Cc1ccc(C)c(OCCCC(C)(C)C(=O)O)c1 ? active

Could you check what this test reported for CC(C)C(C)/C=C/C(C)[C@H]1CCC2C3=CCC4CC(=O)CC[C@]4(C)C3CC[C@@]21C (some centres not stated) ? inactive

====

PROTOCOL TEXT: chemical genetic growth profiling, strain panel (AID 1159580)
ASSAY SETUP: S. cerevisiae deletion strains, growth OD, locus YFR010W, strain ubp6, stronger effect = lower value
Out of some 5,500 compounds screened, about 2,000 (36%) were called active. Not shown: some 18% with an inconclusive outcome. Some of the results follow.
Assign labels as follows, please: condition met for normalized growth below 1; condition not met for normalized growth equal to or exceeding 1.

SAMPLE SMILES	ANSWER LABEL
Nc1ccc(N=Nc2ccccc2)c(N)n1	condition met

Just wondering, is normalized growth of CC1(C)O[C@H]2[C@H](O)C[C@](O)(C(N)=O)C[C@H]2O1 below 1? condition not met

====

PROTOCOL TEXT: chemical genetic growth profiling, strain panel (AID 1159580);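 also: tested at 20 µM; growth read once vehicle control cultures reached saturation at 30 °C; 1 = growth at the plate median or of vehicle wells; lower values mean less growth of the strain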
ASSAY SETUP: S. cerevisiae deletion strains, growth OD, locus YGL248W, strain PDE1, stronger effect = lower value
The campaign covered roughly 5,500 compounds. About 2,000 (36%) were called active. Roughly 18% stayed inconclusive and do not appear here. The list shows a part of the results.
Property: normalized growth; scope: individual compounds
When you answer, write just the number.

// below: answered compounds
> print(dat)
                                   compound  measured
1  CC(C)C(C)/C=C/C(C)[C@H]1CCC2C3=CCC4CC(=O)CC[C@]4(C)C3CC[C@@]21C (stereo partly drawn)      1.01
2           Cc1ccc(C)c(OCCCC(C)(C)C(=O)O)c1     0.914
3  C#CCCCCCCCCCCCC(=O)CC(O)COC(C)=O (stereo not drawn)     0.788

Continue with the compound presented below.
Name the recorded normalized growth for COc1ccc2c(c1OC)C(=O)OC2[C@H]1c2c(cc3c(c2OC)OCO3)CCN1C (stereo partly drawn) . 1.01

====

Each entry below carries its reported normalized growth.
PROTOCOL TEXT: chemical genetic growth profiling, strain panel (AID 1159580);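 also: tested at 20 µM; growth read once vehicle control cultures reached saturation at 30 °C; 1 = growth at the plate median or of vehicle wells; lower values mean less growth of the strain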
ASSAY SETUP: S. cerevisiae deletion strains, growth OD, locus YCL061C, strain MRC1 (second series), stronger effect = lower value
Screen size: about 5,500 compounds; about 2,000 (36%) were called active. Roughly 18% stayed inconclusive and do not appear here. Some of the results follow.
Just the number, please.

COMPOUND	normalized growth
CC(C)NNC(=O)c1ccncc1	0.986
NC(=O)C1=CN(C2OC(COP(=O)(O)OP(=O)(O)OC[C@H]3O[C@@H](n4cnc5c(N)ncnc54)C(OP(=O)(O)O)[C@H]3O)C(O)C2O)C=CC1 (stereo not given in full)	0.997
C[N+]1(C)C2CC(OC(=O)[C@H](CO)c3ccccc3)CC1C1OC12 (stereo not given in full)	1

For the compound shown here, CCCN1CCC[C@@H](c2cccc(O)c2)C1 , give the reported normalized growth. 1

For CC(/C=C/c1cccc(Oc2ccc(F)cc2)c1)N(O)C(N)=O (stereo not given) , what is its reported normalized growth? 0.994

====

PROTOCOL TEXT: chemical genetic growth profiling, strain panel (AID 1159580);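 also: tested at 20 µM; growth read once vehicle control cultures reached saturation at 30 °C; 1 = growth at the plate median or of vehicle wells; lower values mean less growth of the strain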
ASSAY SETUP: S. cerevisiae deletion strains, growth OD, locus YCL029C, strain bik1
Among all 5,500 compounds or so, about 2,000 (36%) were called active. About 18% were inconclusive and are not listed. Cut-off read from the data, not from the text of the source: active = normalized growth mostly below about 0.91 (no sharp cut-off); inconclusive = no clear call, values can overlap the other calls; inactive = mostly above about 0.92. The list shows a part of the results.
Parameter call: string, one of active, inactive

> print(dat)
                                   molecule  answer.label
1  C#CCCCCCCCCCCCC(O)CC(O)CO (configuration not stated)      inactive

Dear colleague, could you share the recorded outcome for CC(=O)OCC[C@H](C)CCC=C(C)C when you have a moment? inactive

Assay result, entry C#CCCCCCCCCCCCC(=O)CC(O)COC(C)=O (configuration not stated) — outcome? active

What did this assay record as the result for COc1cc(-c2coc3cc(OCc4ccccc4)c(OC)c(O)c3c2=O)cc(OCc2ccccc2)c1OC ? inactive

Look up the recorded call for CC(=O)N[C@@H](CS)C(=O)O in this test. inactive

Which outcome was assigned to CC1(C)O[C@H]2[C@H](O)C[C@](O)(C(N)=O)C[C@H]2O1 in this test? inactive

Can you look up the reported call for CC(=O)OCC(COC(C)=O)OC(C)=O for me? inactive
